- test_summary: PermeaPad + mucus permeability assay (cystic fibrosis mucus model on PermeaPad 96-well plate)
- Type: in vitro ADME
- conditions: not told; PermeaPad + mucus model; donor 100 or 500 µM in 10 mM PB pH 7.4, 5% DMSO; single timepoint 5 h; mean (±SD), n>=3; read-out: Papp mucus ± SD • 10^6

{"columns": ["molecule", "Papp at 5 h, ×10⁻⁶ cm/s"],
 "data": [
  ["CCS(=O)(=O)N1CC(CC#N)(n2cc(-c3ncnc4[nH]ccc34)cn2)C1", 0.87],
  ["CO[C@H]1/C=C/O[C@@]2(C)Oc3c(C)c(O)c4c(O)c(c5c(nc6cc(C)ccn65)c4c3C2=O)NC(=O)/C(C)=C\\C=C\\[C@H](C)[C@H](O)[C@@H](C)[C@@H](O)[C@@H](C)[C@H](OC(C)=O)[C@@H]1C", 0.08],
  ["CC(C)NCC(O)COc1cccc2ccccc12 (centres unmarked)", 1.08],
  ["NC(=O)c1nc(F)c[nH]c1=O", 6.18],
  ["CC(CCc1ccccc1)NCC(O)c1ccc(O)c(C(N)=O)c1 (centres unmarked)", 1.11],
  ["C=CC(=O)N1CCN(c2nc(=O)n(-c3c(C)ccnc3C(C)C)c3nc(-c4c(O)cccc4F)c(F)cc23)[C@@H](C)C1", 0.21],
  ["CC(C)(C)NCC(O)c1ccc(O)c(CO)c1 (centres unmarked)", 0.64],
  ["C[C@H]1[C@H](NC(=O)/C(=N\\OC(C)(C)C(=O)O)c2csc(N)n2)C(=O)N1S(=O)(=O)O", 0.17]
]}

----------
- test_summary: PermeaPad + mucus permeability assay (cystic fibrosis mucus model on PermeaPad 96-well plate)
- Assay type: in vitro ADME
- conditions: Papp vs. Papp mucus, Student's t-test, significance at p < 0.05
- Procedure: The pathological mucus model produced by Bac3Gel Lda. was prepared as previously described. […] The mucin suspension was prepared in mQ water. […] The concentration of the drug in each acceptor well was determined using a Varian HPLC equipped with a 410 autosampler and a C18 column (150 × 2 mm, […], 100) and detected on a Varian 320 MS TQ mass spectrometer equipped with an electrospray ionization (ESI) source operating in positive or negative mode. […]
recorded_endpoint: Effect of mucus on Papp

{"columns": ["compound", "endpoint_result"],
 "data": [
  ["CC(C)NCC(O)COc1cccc2ccccc12 (stereo not drawn) [Propranolol]", "Reduced"],
  ["CO[C@H]1/C=C/O[C@@]2(C)Oc3c(C)c(O)c4c(O)c(c(/C=N/N5CCN(C)CC5)c(O)c4c3C2=O)NC(=O)/C(C)=C\\C=C\\[C@H](C)[C@H](O)[C@@H](C)[C@@H](O)[C@@H](C)[C@H](OC(C)=O)[C@@H]1C [Rifampicin]", "None"],
  ["Nc1nc2c(ncn2COCCO)c(=O)[nH]1 [Acyclovir]", "Reduced"],
  ["CC(C)(C)NC(=O)[C@@H]1C[C@@H]2CCCC[C@@H]2CN1C[C@@H](O)[C@H](Cc1ccccc1)NC(=O)[C@H](CC(N)=O)NC(=O)c1ccc2ccccc2n1 [Saquinavir]", "Reduced"],
  ["CC(CCc1ccccc1)NCC(O)c1ccc(O)c(C(N)=O)c1 (stereo not drawn) [Labetalol]", "Reduced"],
  ["CCOC(=O)C1=C(COCCN)NC(C)=C(C(=O)OC)C1c1ccccc1Cl (stereo not drawn) [Amlodipine]", "None"]
]}
